Assay: Permeability test (Papp) across hiPSC-derived enterocyte-like cell monolayer
Type: in vitro ADME
Settings: human, day 23 of differentiation, M3-2 medium, 37°C 2 h, n = 4; read-out: RPChiPS771 d23 Papp Mean ± SD
Hi there, I'd appreciate the recorded Papp at 2 h for every entry that follows.
One number for each entry, in ×10⁻⁶ cm/s.

As a guide, the following entries are already answered.
O=C(O)c1cc(/N=N/c2ccc(S(=O)(=O)Nc3ccccn3)cc2)ccc1O = 1.02
O=C(O)Cc1ccccc1Nc1c(Cl)cccc1Cl = 17.4
Nc1nc2c(ncn2COCCO)c(=O)[nH]1 = 3.62

Now take the following compound into account.
Lookup result for CNC(=C[N+](=O)[O-])NCCSCc1ccc(CN(C)C)o1 ; measured Papp at 2 h: 3.94
